- SYSTEM: SIRT2 (Homo sapiens, UniProt Q8IXJ6)
- PROCEDURE_TEXT: Fluor de Lys fluorescence-based SIRT2 inhibition assay (in-house SIRT2)
- Type: biochemical
- Design: SIRT2 cDNA (residues 50-356) was expressed; His tag (N, cleaved yes); made in house; host or cells: E. coli BL21(DE3) pLysS
- TEST_CONTEXT: SIRT2 over SIRT1
Consider the following compounds; for each one, report its Selectivity Factor.
I only need the number, thanks.

Return reported Selectivity Factor. Input compound: CCOc1c(Cl)cc(C(=O)NC(=S)Nc2ccc(NC(=O)CCCCN(C)C)cc2)cc1Cl.Cl
2.2

Fill in Selectivity Factor for record CCCCOc1ccc(C(=O)NC(=S)Nc2ccc(NC(=O)CCCCN(C)C)cc2)cc1.Cl
5.1

Give the value of Selectivity Factor reported for the following: CCCOc1c(Cl)cc(C(=O)NC(=S)Nc2ccc(NC(=O)CCCCN(C)C)cc2)cc1Cl.Cl
5.0

Please give the documented Selectivity Factor of COc1c(Br)cc(C(=O)NC(=S)Nc2ccc(NC(=O)CCCCN(C)C)cc2)cc1Br.Cl
3.2

Check the records and state Selectivity Factor for CCOc1c(F)cc(C(=O)NC(=S)Nc2ccc(NC(=O)CCCCN(C)C)cc2)cc1F.Cl
2.0

Give recorded Selectivity Factor. CCCCOc1c(Cl)cc(C(=O)NC(=S)Nc2ccc(NC(=O)CCCCN(C)C)cc2)cc1Cl.Cl
26.9

Input COc1c(F)cc(C(=O)NC(=S)Nc2ccc(NC(=O)CCCCN(C)C)cc2)cc1F.Cl , output reported Selectivity Factor.
2.6

For the compound COc1c(C)cc(C(=O)NC(=S)Nc2ccc(NC(=O)CCCCN(C)C)cc2)cc1C.Cl , report Selectivity Factor.
1.5

---

- SYSTEM: SIRT1 (Homo sapiens)
- Sequence (Q96EB6 1-747): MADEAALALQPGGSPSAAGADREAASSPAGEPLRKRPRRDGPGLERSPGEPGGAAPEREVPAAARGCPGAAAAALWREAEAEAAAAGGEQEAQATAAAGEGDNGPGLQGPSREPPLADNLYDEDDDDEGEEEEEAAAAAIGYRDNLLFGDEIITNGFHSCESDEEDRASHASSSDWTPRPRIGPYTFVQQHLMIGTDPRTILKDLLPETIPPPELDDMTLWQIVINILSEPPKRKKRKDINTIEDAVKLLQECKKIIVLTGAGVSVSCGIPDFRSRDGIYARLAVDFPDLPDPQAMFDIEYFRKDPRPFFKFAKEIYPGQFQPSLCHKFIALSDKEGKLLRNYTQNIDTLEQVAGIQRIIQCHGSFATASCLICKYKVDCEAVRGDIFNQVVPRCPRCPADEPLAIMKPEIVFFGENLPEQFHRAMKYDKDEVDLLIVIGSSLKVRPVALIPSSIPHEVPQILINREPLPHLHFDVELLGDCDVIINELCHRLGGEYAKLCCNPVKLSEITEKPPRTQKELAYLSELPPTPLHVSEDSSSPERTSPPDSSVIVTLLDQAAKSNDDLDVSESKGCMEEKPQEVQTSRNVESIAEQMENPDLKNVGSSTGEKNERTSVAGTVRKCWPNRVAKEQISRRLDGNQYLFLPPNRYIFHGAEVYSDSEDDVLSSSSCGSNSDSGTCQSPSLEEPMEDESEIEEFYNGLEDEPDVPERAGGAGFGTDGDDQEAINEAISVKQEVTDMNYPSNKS
OBSERVATION_TYPE: IC50 (µM)
Report only the number, with the unit µM understood.

Report IC50 from SIRT1 (Homo sapiens) testing of CCOc1c(Cl)cc(C(=O)NC(=S)Nc2ccc(NC(=O)CCCCN(C)C)cc2)cc1Cl.Cl
28.5

Give IC50 for CCCCOc1ccc(C(=O)NC(=S)Nc2ccc(NC(=O)CCCCN(C)C)cc2)cc1.Cl tested on SIRT1 (Homo sapiens).
36.5

State recorded IC50 with SIRT1 (Homo sapiens), entry CCCCOc1c(Cl)cc(C(=O)NC(=S)Nc2ccc(NC(=O)CCCCN(C)C)cc2)cc1Cl.Cl , no comment.
21.5

Write IC50 of COc1c(F)cc(C(=O)NC(=S)Nc2ccc(NC(=O)CCCCN(C)C)cc2)cc1F.Cl ; system used: SIRT1 (Homo sapiens)
47.2
